The reported numbers originate from patent US20180021429A1.

I'd be grateful if you could share measured Binding amount (RU) for these entries.
# System under test: T1, human FSTL1 (construct not stated) (human, UniProt Q12841 21-308)
# T1 construct: also called human FSTL1 antigen; FSTL1 (R&D Systems, Inc. Cat#1694-FN-050)
# T1 sequence: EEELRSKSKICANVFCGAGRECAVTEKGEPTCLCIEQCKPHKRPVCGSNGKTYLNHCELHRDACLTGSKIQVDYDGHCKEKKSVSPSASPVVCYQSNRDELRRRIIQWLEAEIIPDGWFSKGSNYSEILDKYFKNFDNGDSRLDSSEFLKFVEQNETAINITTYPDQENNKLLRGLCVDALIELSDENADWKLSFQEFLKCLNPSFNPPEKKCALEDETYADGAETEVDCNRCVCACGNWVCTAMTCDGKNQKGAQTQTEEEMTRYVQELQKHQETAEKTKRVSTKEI
# Assay remarks: SPR (Biacore T-200), captured antibody, human FSTL1 10 µg/ml
Give just the numeric value; RU need not be written.

Ask: Suppose we examine the binder anti-FSTL1 antibody clone #5-3 (chicken-mouse chimeric antibody) (antibody, mouse IgG1, kappa, V domains shown) VH: AVTLDESGGGLQTPGGALSLVCKGSGFSFSSFNMFWVRQAPGKGLEWVAGIGKDGVPKYGAAVDGRATISKDNGQSTMRLQLNNLRAEDTGTYFCAKAAGGCSYDWCGIYAGDIDTWGHGTEVIVSS VL: ASTQPSSVSANPGETVKITCSGGSGYYYGWYQQKSPGSVPVTVIYNNNNRPSDIPSRFSGSKSGSTGTLTITGVRAEDEAVYYCGGYDNSGTGIFGAGTTLTVLG ; what Binding amount (RU) value has been reported?
Result: 11

Ask: Suppose we examine the binder anti-FSTL1 antibody clone #10 (chicken-mouse chimeric antibody) (antibody, mouse IgG1, kappa, V domains shown) VH: AVTLDESGGGLQTPGGALSLVCKASGFFFFRIYDMGWVRQAPGKGLEWVAGIDDYGRYTGYGSAVKGRATISRDNGQSTVRLQLNNLRAEDTGTYYCARGAGTGCNSAGCGAYAGSIDAWGHGTEVIVSS VL: ASTQPSSVSANPGETVKLTCSGGGSRYGWYQQKSPGSAPVTVIYYNDKRPSDIPSRFSGSKSGSTATLTITGVQAEDEAVYFCGGYDGSRDAGIFGAGTTLTVLG ; what Binding amount (RU) value has been reported?
Result: 11.7

Ask: Suppose we examine the binder anti-FSTL1 antibody clone #5-2 (chicken-mouse chimeric antibody) (antibody, mouse IgG1, kappa, V domains shown) VH: AVTLDESGGGLQTPGGGLSLVCKGSGFTFSSFNMFWVRQAPGKGLEWVAGVGKDGGTGYGAAVDGRATISKDNGQSTLRLQLNNLRAEDTGTYYCAKAAGGCSYGWCGSYVGDIDAWGHGTEVIVSS VL: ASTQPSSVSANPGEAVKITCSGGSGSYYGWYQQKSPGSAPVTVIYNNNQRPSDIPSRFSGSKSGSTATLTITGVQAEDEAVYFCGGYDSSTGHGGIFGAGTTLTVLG ; what Binding amount (RU) value has been reported?
Result: 9.2

Ask: Suppose we examine the binder anti-FSTL1 antibody clone #8-8 (chicken-mouse chimeric antibody) (antibody, mouse IgG1, kappa, V domains shown) VH: AVTLDESGGGLQTPGGALSLVCKGSGFTFSSFNMFWVRQAPGKGLEWVAGIGKDGVPKYGAAVDGRATISKDNGQSTMRLQLNNLRAEDTGTYYCAKAAGGCSYGWCGAYTGDIDTWGHGTEVIVSS VL: ASTQPSSVSANPGEAVKITCSGGSGSYYGWYQQKSPGSAPVTVIYNNNQRPSDIPSRFSGSKSGSTATLTITGVQVEDEAVYFCGGYDSSTGHGGIFGAGTTLTVLG ; what Binding amount (RU) value has been reported?
Result: 8

Ask: Suppose we examine the binder anti-FSTL1 antibody clone #5-8 (chicken-mouse chimeric antibody) (antibody, mouse IgG1, kappa, V domains shown) VH: AVTLDESGGGLQTPGGGLSLVCKGSGFTFSSFNMFWVRQAPGKGLEWVAGIGKDGVPKYGTAVDGRATISKDNGQSTMRLQLNNLRAEDTGTYFCAKAAGGCSYDWCGIYTGDIDTWGHGTEVIVSS VL: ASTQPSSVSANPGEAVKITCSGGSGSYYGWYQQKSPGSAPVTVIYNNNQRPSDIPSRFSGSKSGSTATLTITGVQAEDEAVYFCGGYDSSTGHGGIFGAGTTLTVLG ; what Binding amount (RU) value has been reported?
Result: 6.7
